- measured.target: human Plasma Kallikrein (KLKB1) (Homo sapiens (Human), UniProt P03952)
- Sequence (P03952 391-638): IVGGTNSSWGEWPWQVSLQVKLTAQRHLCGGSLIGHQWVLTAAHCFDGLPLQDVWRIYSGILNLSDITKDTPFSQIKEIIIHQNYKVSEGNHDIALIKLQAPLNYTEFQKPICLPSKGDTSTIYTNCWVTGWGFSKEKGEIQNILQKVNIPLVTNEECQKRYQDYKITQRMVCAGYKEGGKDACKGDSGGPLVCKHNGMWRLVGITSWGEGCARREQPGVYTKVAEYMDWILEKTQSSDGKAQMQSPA
- Sequence (P03952 20-390 partner): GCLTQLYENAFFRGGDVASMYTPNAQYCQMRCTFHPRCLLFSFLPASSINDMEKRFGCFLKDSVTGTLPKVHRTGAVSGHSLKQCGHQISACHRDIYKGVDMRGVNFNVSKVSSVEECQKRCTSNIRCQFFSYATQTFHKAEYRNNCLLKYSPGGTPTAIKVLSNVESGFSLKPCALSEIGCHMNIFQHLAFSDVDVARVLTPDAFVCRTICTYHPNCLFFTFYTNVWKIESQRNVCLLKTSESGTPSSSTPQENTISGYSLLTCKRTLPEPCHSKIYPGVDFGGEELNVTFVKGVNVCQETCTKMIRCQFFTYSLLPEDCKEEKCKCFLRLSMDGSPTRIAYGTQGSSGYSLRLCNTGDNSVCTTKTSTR
- assay.protocol: Inhibition of KLKB1 endpoint assay
- condition.set: fluorogenic substrate H-Pro-Phe-Arg-AMC, 1 hr at Room Temperature, read-out: IC50 measurements for the inhibition of human Plasma Kallikrein (KLKB1)
pIC50: −log10 of the molar value.

{"compound": "Nc1nccc2c1CC[C@H]2NC(=O)c1cnn(Cc2ccc(N3CC4CC4C3)nc2C(F)(F)F)c1 (some centres unmarked)", "pIC50": 9.00}
{"compound": "Nc1ccc2c(n1)CC[C@H]2NC(=O)c1cnn(Cc2cnc(N3CC4CC4C3)cc2C(F)(F)F)c1 (some centres unmarked)", "pIC50": 8.05}
{"compound": "Nc1ccc2c(n1)CCC2NC(=O)c1cnn(Cc2ccc(CN3CC4CC4C3=O)cc2)c1 (centres unmarked)", "pIC50": 7.09}
{"compound": "Nc1ccc2c(n1)CC[C@H]2NC(=O)c1cn(Cc2ccc(N3CC4CC4C3)nc2)nc1C(F)(F)F (some centres unmarked)", "pIC50": 7.68}
{"compound": "Nc1ccc2c(n1)CCC2NC(=O)c1cnn(Cc2ccc(N3CCN4CCCC4C3)cc2)c1 (centres unmarked)", "pIC50": 5.68}

* * *

- measured.target: human Plasma Kallikrein (KLKB1) (Homo sapiens (Human), UniProt P03952)
- assay.protocol: Inhibition of KLKB1 endpoint assay
- condition.set: fluorogenic substrate H-Pro-Phe-Arg-AMC, 1 hr at Room Temperature, read-out: IC50 measurements for the inhibition of human Plasma Kallikrein (KLKB1)

{"molecule": "Nc1cc2c(cn1)C(NC(=O)c1cn(Cc3ccc(N4CCN5CCCCC5C4=O)cc3)nn1)CC2 (centres unmarked) [Example 13]", "qualifier.sign": ">", "IC50, nM": 10000}
{"molecule": "Nc1nccc2c1CC[C@H]2NC(=O)c1cnn(Cc2ccc(N3CC4(COC4)C3)nc2)c1 [Example 90]", "qualifier.sign": "=", "IC50, nM": 78}
{"molecule": "Cc1cc(Cn2cc(C(=O)N[C@@H]3CCc4c3ccnc4N)nn2)ccc1N1CCN2CCCC2C1=O (single isomer, unassigned) [Example 58]", "qualifier.sign": "=", "IC50, nM": 1600}
{"molecule": "Nc1nccc2c1CC[C@H]2NC(=O)c1cnn(Cc2ccc(N3CCC4(CC4)C3)nc2)c1 [Example 89]", "qualifier.sign": "=", "IC50, nM": 5}
{"molecule": "CC(c1ccc(N2CC3CC3C2)nc1)n1cc(C(=O)N[C@@H]2CCc3c2ccnc3N)cn1 (single isomer, unassigned) [Example 72]", "qualifier.sign": "=", "IC50, nM": 10}
{"molecule": "Nc1ccc2c(n1)CCC2NC(=O)c1cn(Cc2cccc(N3CCN4CCCCC4C3=O)c2)nn1 (centres unmarked) [Example 70]", "qualifier.sign": ">", "IC50, nM": 10000}
{"molecule": "Nc1nccc2c1CC[C@H]2NC(=O)c1cn(Cc2ccc(N3CC4CC4C3)nc2)nc1C(F)(F)F (some centres unmarked) [Example 77]", "qualifier.sign": "=", "IC50, nM": 2}
{"molecule": "Nc1nccc2c1CC[C@H]2NC(=O)c1cnn(Cc2ccc(CN3CC4CC4CC3=O)cc2)c1 (some centres unmarked) [Example 23]", "qualifier.sign": "=", "IC50, nM": 2}
{"molecule": "Nc1nccc2c1CC[C@H]2NC(=O)c1cn(Cc2ccc(N3CC4CC4C3)nc2C(F)(F)F)nn1 (some centres unmarked) [Example 38]", "qualifier.sign": "=", "IC50, nM": 1}
{"molecule": "Nc1nccc2c1CCC2NC(=O)c1cnn(Cc2ccc(CN3C[C@H]4C[C@H]4C3=O)cc2)c1 (single isomer, unassigned) [Example 54]", "qualifier.sign": "=", "IC50, nM": 46}
{"molecule": "Nc1nccc2c1CCC2NC(=O)c1cnn(Cc2ccc(CN3CC4CC4C3=O)cc2)c1 (centres unmarked) [Example 5]", "qualifier.sign": "=", "IC50, nM": 10}
{"molecule": "Nc1nccc2c1CC[C@H]2NC(=O)c1cnn(C2(c3ccc(N4CC5CC5C4)nc3)CC2)c1 (some centres unmarked) [Example 74]", "qualifier.sign": "=", "IC50, nM": 41}
{"molecule": "Nc1ccc2c(n1)CC[C@H]2NC(=O)c1cn(Cc2ccc(CN3C[C@@H]4C[C@@H]4C3=O)cc2)nc1C(F)(F)F [Example 8]", "qualifier.sign": "=", "IC50, nM": 14}
{"molecule": "Nc1ccc2c(n1)CCC2NC(=O)c1cn(Cc2ccc(-n3cc4c(n3)CCOC4)cc2)nn1 (centres unmarked) [Example 27]", "qualifier.sign": ">", "IC50, nM": 10000}
